Tested on: MDA-MD-231 STn cells
Assay: Antibody internalization by fluorescence microscopy cell counts, STn+ cells
Type: cell-based, human
Details: 10 μg/ml antibody, 15 min at 37° C.
Reported Net cell counts of cells showing positive internalization values for the following molecules.
API doc: respond with a numeric literal and nothing else, no unit.

Consider the following illustrative entries.
8C11: anti-STn mouse monoclonal, IgG2b κ, from mouse #4407; VH SEQ ID NO: 8, VL SEQ ID NO: 9 (antibody, V domains shown) VH: QVQLKESGPGLVAPSQSLSITCTVSGFSLTSYGVSWVRQPPGKGLEWLGVIWGDGSTNYHSALISRLIISKDNSKSQVFLKLNSLQTDDTATYYCTKGFTYWGQGTLVTVSA VL: QIVLTQSPAIMSASPGEKVTMTCSASSSVSYMHWYQQKSGTSPKRWIFDTSKLASGVPARFSGSGSGTSYSLTISSMEAEDAATYYCQQWSSNLLTFGAGTKLELK = 934
7G9: anti-STn mouse monoclonal, IgG2b κ, from mouse #4407; VH SEQ ID NO: 12, VL SEQ ID NO: 9 (antibody, V domains shown) VH: QVQLKESGPGLVAPSQNLSITCTVSGFSLTSYGVNWVRQPPGKGLEWLGVIWGDGSTNYHSALISRLIISKENSKSQVFLKLNSLQTNDTATYYCTKGFVYWGQGTLVTVSA VL: QIVLTQSPAIMSASPGEKVTMTCSASSSVSYMHWYQQKSGTSPKRWIFDTSKLASGVPARFSGSGSGTSYSLTISSMEAEDAATYYCQQWSSNLLTFGAGTKLELK = 458
10A5: anti-STn mouse monoclonal, IgG2c κ, from mouse #4406; VH SEQ ID NO: 6, VL SEQ ID NO: 7 (antibody, V domains shown) VH: QVQLKESGPGLVAPSQSLSITCTVSGFSLTSYGVSWVRQPPGKGLEWLGVIWGDGSTNYHSSLISRLSISKDNSKSQVFLKLNSLQTDDTATYYCARAFVYWGQGTLVTVSA VL: QIVLTQSPAIMSASPGEKVTMTCSASSSVSYIHWYQQKSGTSPKRWIYDTSKLASGVPARFSGSGSGTSYSLTISSMEAEDAATYYCQQWSSNPPMLTFGAGTKLELK = 267

Continue with the next molecule.
Entry under review: 2D4: anti-STn mouse monoclonal, IgG2b κ, from mouse #4407; VH SEQ ID NO: 10, VL SEQ ID NO: 11 (antibody, V domains shown) VH: QVQLQESGPGLVAPSQSLSITCTVSGFSLISYGVNWVRQPPGKGLEWLGVIWGDGSTNYQSALISRLIISKDNSKSQVFLKLNSLQTDDTATYYCTKGFAYWGQGTLVTVSA VL: QIVLTQSPAIMSASPGEKVTMTCSASSSVSYMHWFQQKSGTSPKRWIYDTSKLASGVPARFSGSGSGTSYSLTISSMEAEDAATYYCQQWSSNLLTFGAGTKLELK . Reported Net cell counts of cells showing positive internalization?
1340

Reference source for all entries: patent US20180280504A1
